Data credit: ChEMBL document CHEMBL4431351

target: Urease subunit alpha/Urease subunit beta (Helicobacter pylori (strain ATCC 700392 / 26695) (Campylobacterpylori), UniProt P69996); experiment: Inhibition of recombinant Helicobacter pylori urease expressed in Escherichia coli rosetta DE3 using urea as substrate assessed as transformed cell urea splitting activity after 2 hrs by Berthelot assay
Sequence (P69996 whole entry): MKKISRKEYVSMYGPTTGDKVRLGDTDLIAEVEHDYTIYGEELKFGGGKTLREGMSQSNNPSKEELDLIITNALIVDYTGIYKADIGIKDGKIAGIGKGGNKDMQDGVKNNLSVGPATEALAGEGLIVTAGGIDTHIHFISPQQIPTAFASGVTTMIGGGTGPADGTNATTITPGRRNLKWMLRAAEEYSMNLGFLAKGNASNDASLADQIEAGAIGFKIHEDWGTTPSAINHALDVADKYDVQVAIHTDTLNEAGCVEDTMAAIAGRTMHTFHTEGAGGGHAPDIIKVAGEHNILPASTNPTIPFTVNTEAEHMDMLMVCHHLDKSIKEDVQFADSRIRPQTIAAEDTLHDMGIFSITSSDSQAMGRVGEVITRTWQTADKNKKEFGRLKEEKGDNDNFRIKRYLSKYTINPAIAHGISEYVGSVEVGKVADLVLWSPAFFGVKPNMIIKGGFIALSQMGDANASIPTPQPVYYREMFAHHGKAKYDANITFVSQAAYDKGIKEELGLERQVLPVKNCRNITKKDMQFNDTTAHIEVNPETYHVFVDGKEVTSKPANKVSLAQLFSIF
Sequence (P14916 whole entry, further chain): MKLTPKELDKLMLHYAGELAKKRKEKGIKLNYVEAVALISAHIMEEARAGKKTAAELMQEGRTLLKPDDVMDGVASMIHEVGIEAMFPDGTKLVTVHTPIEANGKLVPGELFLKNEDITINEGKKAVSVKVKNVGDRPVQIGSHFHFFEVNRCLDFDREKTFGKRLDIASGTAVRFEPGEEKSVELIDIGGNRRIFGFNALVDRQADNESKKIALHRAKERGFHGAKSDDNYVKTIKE
Measured IC50, listed per entry.
measurement.type: IC50 (µM)

INSERT INTO assay_data (compound, unit_tag, result) VALUES
  ('COC(=O)[C@H](C)n1[se]c2ccccc2c1=O', 'µM', 75),
  ('O=C(O)CCCn1[se]c2ccccc2c1=O', 'µM', 103),
  ('CCC(C)[C@@H](C(=O)OC)n1[se]c2ccccc2c1=O (stereo partly specified)', 'µM', 96),
  ('O=c1c2ccccc2[se]n1[C@H](CO)c1ccccc1', 'µM', 79),
  ('O=C(Nc1ccccc1)c1ccccc1[Se][Se]c1ccccc1C(=O)Nc1ccccc1 [EBSELEN DISELENIDE]', 'µM', 87),
  ('O=c1[nH][se]c2ccccc12', 'µM', 48.6),
  ('C[C@H](NC(=O)c1ccccc1[Se][Se]c1ccccc1C(=O)N[C@@H](C)C(=O)O)C(=O)O', 'µM', 85),
  ('COC(=O)Cn1[se]c2ccccc2c1=O', 'µM', 108),
  ('CC(C)[C@@H](C(=O)O)n1[se]c2ccccc2c1=O', 'µM', 186),
  ('O=c1c2ccccc2[se]n1-c1ccccc1', 'µM', 69),
  ('COC(=O)[C@@H](CC(C)C)n1[se]c2ccccc2c1=O', 'µM', 121),
  ('O=C(O)C[C@@H](C(=O)O)n1[se]c2ccccc2c1=O', 'µM', 388),
  ('COC(=O)[C@H](CC(C)C)n1[se]c2ccccc2c1=O', 'µM', 127),
  ('CC(=O)NO [ACETOHYDROXAMIC ACID]', 'µM', 154),
  ('O=C(O)CNC(=O)c1ccccc1[Se][Se]c1ccccc1C(=O)NCC(=O)O', 'µM', 163),
  ('CC(C)C[C@@H](C(=O)O)n1[se]c2ccccc2c1=O', 'µM', 301);

###

target: Urease subunit alpha/Urease subunit beta (Helicobacter pylori (strain ATCC 700392 / 26695) (Campylobacterpylori)); assay: Inhibition of urease in Helicobacter pylori J99 in Brucella broth using urea as substrate preincubated for 2 hrs followed by substrate addition measured after 2 hrs by Berthelot assay; assay type: protein-complex assay
measurement.type: IC50 (µM)

INSERT INTO results (compound, unit_tag, result) VALUES
  ('O=c1c2ccccc2[se]n1-c1ccccc1', 'µM', 3.69),
  ('O=c1[nH][se]c2ccccc12', 'µM', 6.92),
  ('CCC(CO)NC(=O)c1ccccc1[Se][Se]c1ccccc1C(=O)NC(CC)CO (centres undefined)', 'µM', 115),
  ('O=C(O)CCCn1[se]c2ccccc2c1=O', 'µM', 98);

###

test: Steady state inhibition of Sporosarcina pasteurii CCM 2056 urease using urea as substrate assessed as inhibition constant for final enzyme conformation-inhibitor complex by measuring ammonia levels after 120 mins by phenol-hypochlorite method
Mark true only when Ki stays strictly below 80 nM. Values equal to the cut-off are false.

INSERT INTO results (molecule, class) VALUES
  ('CC(C)C[C@@H](C(=O)O)n1[se]c2ccccc2c1=O', 'false'),
  ('O=C(O)c1ccccc1[Se][Se]c1ccccc1C(=O)O', 'false'),
  ('CCC(CO)NC(=O)c1ccccc1[Se][Se]c1ccccc1C(=O)NC(CC)CO (stereo unspecified)', 'true'),
  ('C[C@@H](C(=O)O)n1[se]c2ccccc2c1=O', 'false'),
  ('O=c1[nH][se]c2ccccc12', 'true'),
  ('COC(=O)Cn1[se]c2ccccc2c1=O', 'false');
